system tested: PRKCG (human) (UniProt P05129)
measurement notes: radiometric filter-binding kinase assay
experimental setup: compound 1.0 µM; ATP 5 µM
residual activity less than 90% is 1; residual activity greater than or equal to 90% is 0.

**Q:** Please state whether residual activity is below 90% for `O=C1c2ccccc2-c2n[nH]c3cccc1c23`
**A:** 0

**Q:** Please state whether residual activity is below 90% for `COc1ccc2c(c1)=NC1=C(C)NCCC=21`
**A:** 1

**Q:** Please state whether residual activity is below 90% for `CC(C)(N)c1ccc(-c2nc3ccccc3nc2-c2ccccc2)cc1`
**A:** 0

**Q:** Please state whether residual activity is below 90% for `CC[C@@H](CO)Nc1nc(NCc2ccccc2)c2ncn(C(C)C)c2n1`
**A:** 1

**Q:** Please state whether residual activity is below 90% for `O=S(=O)(NCCNC/C=C/c1ccc(Br)cc1)c1cccc2cnccc12`
**A:** 1

**Q:** Please state whether residual activity is below 90% for `COC[C@H]1OC(=O)c2coc3c2[C@@]1(C)C1=C(C3=O)[C@@H]2CCC(=O)[C@@]2(C)C[C@H]1OC(C)=O`
**A:** 1
